Target: Thermus aquaticus (Taq) DNA polymerase variant G46D F667Y E681K (Thermus aquaticus, UniProt P19821, E681K/F667Y/G46D)
Construct: Expression vector pRDA3-2 contains the full-length Taq DNA polymerase gene
Sequence (P19821 whole entry G46D/F667Y/E681K): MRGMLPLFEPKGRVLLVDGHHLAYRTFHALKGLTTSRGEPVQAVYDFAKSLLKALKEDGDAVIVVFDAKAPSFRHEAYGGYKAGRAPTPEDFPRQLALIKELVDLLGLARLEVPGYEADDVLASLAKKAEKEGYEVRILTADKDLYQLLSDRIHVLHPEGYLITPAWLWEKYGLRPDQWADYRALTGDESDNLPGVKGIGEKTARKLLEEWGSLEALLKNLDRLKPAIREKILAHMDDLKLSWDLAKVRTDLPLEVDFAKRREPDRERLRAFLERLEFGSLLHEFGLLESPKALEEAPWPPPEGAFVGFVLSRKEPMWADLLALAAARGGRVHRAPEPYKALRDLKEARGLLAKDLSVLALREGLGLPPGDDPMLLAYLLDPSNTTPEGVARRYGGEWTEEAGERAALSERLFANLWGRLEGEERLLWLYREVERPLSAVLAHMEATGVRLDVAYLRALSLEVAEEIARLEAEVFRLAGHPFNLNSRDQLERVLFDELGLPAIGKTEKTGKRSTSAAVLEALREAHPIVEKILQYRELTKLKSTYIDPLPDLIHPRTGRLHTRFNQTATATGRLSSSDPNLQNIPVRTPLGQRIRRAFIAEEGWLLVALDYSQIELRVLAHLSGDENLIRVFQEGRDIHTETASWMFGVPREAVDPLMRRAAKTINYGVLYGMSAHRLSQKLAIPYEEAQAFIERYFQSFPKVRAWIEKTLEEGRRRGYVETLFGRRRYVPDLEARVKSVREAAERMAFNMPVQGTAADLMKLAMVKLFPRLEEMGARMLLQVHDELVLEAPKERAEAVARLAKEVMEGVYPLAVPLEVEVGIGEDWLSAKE
Assay: Limiting template primer extension competition assay (ddNTP incorporation), G46D F667Y E681K Taq
PROPERTY: pIC50
Remember the convention: pIC50 equals -log10 of concentration in molar.

get_value(item= Nc1ccn([C@H]2CC[C@@H](COP(=O)(O)OP(=O)(O)OP(=O)(O)O)O2)c(=O)n1 [ddCTP] , readout=pIC50) returns 6.94

---

Molecular target: Thermus aquaticus (Taq) DNA polymerase variant G46D F667Y (Thermus aquaticus, UniProt P19821, F667Y/G46D)
Construct: Expression vector pRDA3-2 contains the full-length Taq DNA polymerase gene
Sequence (P19821 whole entry G46D/F667Y): as the sequence (P19821 whole entry G46D/F667Y/E681K) above, with K681E counted along it
Assay: Limiting template primer extension competition assay (ddNTP incorporation), G46D F667Y Taq
PROPERTY: IC50 (nM)
# value in nM; strip the unit string

get_value(item= Nc1ccn([C@H]2CC[C@@H](COP(=O)(O)OP(=O)(O)OP(=O)(O)O)O2)c(=O)n1 , readout=IC50) returns 56
